Values from the supplement of paper PMC13380429

Provide the reported cell viability of each item.
Tested on: HepG2
Protocol Details: cell viability relative to DMSO; higher = less toxic
Condition Description: 72 h; 10 nM
Numbers only, in %.

NCC[C@H](O)C(=O)N[C@@H]1C[C@H](N)[C@@H](O[C@H]2O[C@H](CN)[C@@H](O)[C@H](O)[C@H]2O)[C@H](O)[C@H]1O[C@H]1O[C@H](CO)[C@@H](O)[C@H](N)[C@H]1O ... 104
CC(=O)N[C@@H](C=O)[C@@H](O)[C@H](O)[C@H](O)CO ... 85.7
COc1ccc2cc(-c3cc(-c4cc(Cl)cc(Cl)c4)nn3[C@@H](C)c3ccc(C(=O)NCCC(=O)O)cc3)ccc2c1 ... 106
N#CC(c1ccc(Cl)cc1)c1c(Cl)cc(-n2ncc(=O)[nH]c2=O)cc1Cl (stereo unspecified) ... 102

Okay, here is my list. What is cell viability for each of these?
1. CC(=O)NC[C@H]1CN(c2ccc(-c3ccc(CNCc4cnn[nH]4)cc3)c(F)c2)C(=O)O1
2. c1ccc(NCc2ccc(CNc3ccccn3)cc2)nc1

result:
1: 106; 2: 101
